- target_of_assay: hepatitis C virus RNA dependant polymerase (NS5B) (Hepatitis C virus genotype 1b, UniProt P26663)
- Sequence (P26663 2420-3010): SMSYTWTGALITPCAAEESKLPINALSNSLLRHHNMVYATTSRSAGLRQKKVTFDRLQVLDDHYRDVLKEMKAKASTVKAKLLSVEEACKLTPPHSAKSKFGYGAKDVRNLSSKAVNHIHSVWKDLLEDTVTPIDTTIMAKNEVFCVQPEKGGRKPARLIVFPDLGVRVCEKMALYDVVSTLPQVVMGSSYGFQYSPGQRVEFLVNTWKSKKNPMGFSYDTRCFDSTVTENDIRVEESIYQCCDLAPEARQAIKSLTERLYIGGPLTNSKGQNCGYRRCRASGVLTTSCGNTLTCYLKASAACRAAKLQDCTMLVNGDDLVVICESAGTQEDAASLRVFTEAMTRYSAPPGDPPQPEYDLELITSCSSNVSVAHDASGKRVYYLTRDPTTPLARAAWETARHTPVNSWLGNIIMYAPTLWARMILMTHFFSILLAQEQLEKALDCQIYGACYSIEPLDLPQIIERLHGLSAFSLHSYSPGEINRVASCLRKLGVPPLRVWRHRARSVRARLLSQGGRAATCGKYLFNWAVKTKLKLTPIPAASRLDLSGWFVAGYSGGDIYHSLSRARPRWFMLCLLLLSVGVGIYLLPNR
- procedure_text: Inhibition of NS5B RNA dependent RNA polymerase activity
- Format: biochemical
- particulars: Table 1; HCV NS5B polymerase
- Method: A suitable assay is described in the examples. Inhibition of NS5B RNA Dependent RNA Polymerase Activity The compounds of the invention were tested for inhibitory activity against the hepatitis C virus RNA dependant polymerase (NS5B), according to protocol described in WO 03/010141
readout_kind: IC50

Use the examples below as a reference point.
smi: CC(C)N(C(=O)Cn1c(-c2ccoc2)c(C2CCCCC2)c2ccc(C(=O)O)cc21)C1CCCCC1
measured_value: 200 to 1000 nM
--
smi: O=C(O)c1ccc2c(C3CCCCC3)c(-c3ccco3)n(CC(=O)N3CCOCC3)c2c1
measured_value: < 200 nM
--
smi: O=C(O)CNC(=O)Cn1c(-c2ccoc2)c(C2CCCCC2)c2ccc(C(=O)O)cc21
measured_value: < 200 nM
--
smi: CC(C)NC(=O)Cn1c(-c2ccco2)c(C2CCCCC2)c2ccc(C(=O)O)cc21
measured_value: 200 to 1000 nM
--
smi: CN(CCc1ccncc1)C(=O)Cn1c(-c2ccoc2)c(C2CCCCC2)c2ccc(C(=O)O)cc21
measured_value: < 200 nM

Entry `CC(C)(C)C(=O)Cn1c(-c2ccoc2)c(C2CCCCC2)c2ccc(C(=O)O)cc21` has what IC50?
200 to 1000 nM

Entry `O=C(O)c1ccc2c(C3CCCCC3)c(-c3ccoc3)n(CC(=O)N3CCN(c4ccccc4)CC3)c2c1` has what IC50?
200 to 1000 nM

---

compounds and their reported pIC50
- target_of_assay: UniProtKB P26663
- procedure_text: Inhibition of NS5B RNA dependent RNA polymerase activity
- Assay type: biochemical
- particulars: Table 1; HCV NS5B polymerase
pIC50: −log10 of the molar value.

compound: O=C(O)c1ccc2c(C3CCCCC3)c(-c3ccoc3)n(CC(=O)N3CCC(O)CC3)c2c1 [Example 1100]
pIC50: > 6.70

compound: O=C(O)/C=C/c1ccc(NC(=O)[C@]2(NC(=O)Cn3c(-c4ccoc4)c(C4CCCCC4)c4ccc(C(=O)O)cc43)CCNC2)cc1 [Example 1077]
pIC50: > 6.70

compound: CN(C)CC(=O)NNC(=O)Cn1c(-c2ccoc2)c(C2CCCCC2)c2ccc(C(=O)O)cc21 [Example 1132]
pIC50: > 6.70

compound: O=C(O)CN1CCN(C(=O)Cn2c(-c3ccoc3)c(C3CCCCC3)c3ccc(C(=O)O)cc32)CC1 [Example 1074]
pIC50: > 6.70

compound: CN(C)C(=O)[C@@H]1CCCN1C(=O)Cn1c(-c2ccoc2)c(C2CCCCC2)c2ccc(C(=O)O)cc21 [Example 1122]
pIC50: > 6.70

compound: CCN(C(=O)Cn1c(-c2ccoc2)c(C2CCCCC2)c2ccc(C(=O)O)cc21)C1CCCCC1 [Example 1093]
pIC50: 6.00 to 6.70

compound: CC(C)(NC(=O)Cn1c(-c2ccccn2)c(C2CCCCC2)c2ccc(C(=O)O)cc21)C(=O)Nc1ccc(/C=C/C(=O)O)cc1 [Example 1083]
pIC50: 6.00 to 6.70

compound: COCCN1CCN(C(=O)Cn2c(-c3ccoc3)c(C3CCCCC3)c3ccc(C(=O)O)cc32)CC1 [Example 1126]
pIC50: > 6.70

compound: O=C(Cc1ccccc1)NNC(=O)Cn1c(-c2ccoc2)c(C2CCCCC2)c2ccc(C(=O)O)cc21 [Example 1117]
pIC50: 6.00 to 6.70

compound: COCCN(C)C(=O)Cn1c(-c2ccoc2)c(C2CCCCC2)c2ccc(C(=O)O)cc21 [Example 1124]
pIC50: 6.00 to 6.70

Entry CN(C(=O)Cn1c(-c2ccoc2)c(C2CCCCC2)c2ccc(C(=O)O)cc21)C1CCCCC1 [Example 1092] has what pIC50?
> 6.70

Entry O=C(O)c1ccc2c(C3CCCCC3)c(-c3ccoc3)n(CC(=O)N3CCSCC3)c2c1 [Example 1012] has what pIC50?
> 6.70

Entry Cc1ccccc1N(C)C(=O)Cn1c(-c2ccoc2)c(C2CCCCC2)c2ccc(C(=O)O)cc21 [Example 1115] has what pIC50?
5.00 to 6.00

Entry O=C(O)c1ccc2c(C3CCCCC3)c(-c3cnccn3)n(CC(=O)N3CCC(N4CCCC4)CC3)c2c1 [Example 1045] has what pIC50?
> 6.70

Entry CN(C)C(=O)Cn1c(-c2cc3ccccc3s2)c(C2CCCCC2)c2ccc(C(=O)O)cc21 [Example 1046] has what pIC50?
5.00 to 6.00

---

- target_of_assay: hepatitis C virus RNA dependant polymerase (NS5B) (Hepatitis C virus genotype 1b, UniProt P26663)
- procedure_text: Inhibition of NS5B RNA dependent RNA polymerase activity
- Type: biochemical
- particulars: Table 7; class ranges
compounds and their reported IC50

Use the examples below as a reference point.
compound: NC(=O)C1CCN(C(=O)c2ccc3c(c2)c(C2CCCCC2)c(-c2ccoc2)n3CC(=O)N2CCC(N3CCCC3)CC2)CC1 [Example 7035]
readout_kind: IC50
measured_value: 1 to 10 µM
--
compound: O=C(O)/C=C/c1ccc(NC(=O)C2(NC(=O)c3ccc4c(c3)c(C3CCCCC3)c(-c3ccoc3)n4CC(=O)N3CCC(N4CCCC4)CC3)CCC2)cc1 [Example 7062]
readout_kind: IC50
measured_value: 1 to 10 µM

Okay, now this compound:
Entry O=C(NCCN1CCNC1=O)c1ccc2c(c1)c(C1CCCCC1)c(-c1ccoc1)n2CC(=O)N1CCC(N2CCCC2)CC1 [Example 7044] has what IC50?
1 to 10 µM

---

- target_of_assay: hepatitis C virus RNA dependant polymerase (NS5B) (Hepatitis C virus genotype 1b, UniProt P26663)
- procedure_text: Inhibition of NS5B RNA dependent RNA polymerase activity
- Type: biochemical
- particulars: Table 4; class ranges
molecules and their reported IC50

Use the examples below as a reference point.
molecule: CN1CCC(NC(=O)c2ccc3c(C4CCCC4)c(-c4ccoc4)n(CC(=O)N4CCOCC4)c3c2)(c2nc3ccc(C=CC(=O)O)cc3[nH]2)C1 (stereo not drawn)
IC50: < 200 nM
//
molecule: COC(=O)C(C)(C)NC(=O)c1ccc2c(C3CCCCC3)c(-c3ccoc3)n(CC(=O)N3CCOCC3)c2c1
IC50: 200 to 1000 nM
//
molecule: COc1ccc(CNC(=O)c2ccc3c(C4CCCCC4)c(-c4ccccn4)n(CC(=O)N4CCN(C)CC4)c3c2)cc1OC
IC50: 200 to 1000 nM
//
molecule: CC(CNC(=O)c1ccc2c(C3CCCCC3)c(-c3ccoc3)n(CC(=O)N3CCN(C)CC3)c2c1)c1ccccc1 (stereo not drawn)
IC50: 1000 to 10000 nM

Entry `O=C(NC1(c2csc(Nc3ccccc3)n2)CCC1)c1ccc2c(C3CCCCC3)c(-c3ccoc3)n(CC(=O)N3CCC(N4CCCC4)CC3)c2c1` has what IC50?
200 to 1000 nM

Entry `O=C(NC1(C(=O)O)CCCC1)c1ccc2c(C3CCCCC3)c(-c3ccoc3)n(CC(=O)N3CCOCC3)c2c1` has what IC50?
200 to 1000 nM

Entry `CNC(=O)c1ccc2c(C3CCCCC3)c(-c3ccoc3)n(CC(=O)N3CCOCC3)c2c1` has what IC50?
200 to 1000 nM

Entry `C[C@@H](NC(=O)c1ccc2c(C3CCCCC3)c(-c3ccoc3)n(CC(=O)N(C)C)c2c1)c1ccccc1` has what IC50?
< 200 nM

Entry `CN1CCN(C(=O)Cn2c(-c3ccoc3)c(C3CCCCC3)c3ccc(C(=O)NC4CCCC4)cc32)CC1` has what IC50?
200 to 1000 nM

---

- target_of_assay: hepatitis C virus RNA dependant polymerase (NS5B) (Hepatitis C virus genotype 1b)
- procedure_text: Inhibition of NS5B RNA dependent RNA polymerase activity
- Assay type: biochemical
- particulars: Table 1; HCV NS5B polymerase
readout_kind: IC50

compound: CN1CCN(C(=O)Cn2c(-c3ccccn3)c(C3CCCCC3)c3ccc(C(=O)O)cc32)CC1 [Example 1082]
readout_kind: IC50
measured_value: < 200 nM
//
compound: COCCNC(=O)Cn1c(-c2ccoc2)c(C2CCCCC2)c2ccc(C(=O)O)cc21 [Example 1107]
readout_kind: IC50
measured_value: 200 to 1000 nM
//
compound: CC(C)N1CCN(C(=O)Cn2c(-c3ccoc3)c(C3CCCCC3)c3ccc(C(=O)O)cc32)CC1 [Example 1125]
readout_kind: IC50
measured_value: < 200 nM
//
compound: O=C(O)c1ccc2c(C3CCCCC3)c(-c3ccoc3)n(CC(=O)N3CCC[C@H]3C(=O)O)c2c1 [Example 1066]
readout_kind: IC50
measured_value: < 200 nM
//
compound: O=C(Cn1c(-c2ccoc2)c(C2CCCCC2)c2ccc(C(=O)O)cc21)Nc1cccc(C(=O)O)c1 [Example 1070]
readout_kind: IC50
measured_value: 200 to 1000 nM
//
compound: O=C(O)/C=C/c1ccc(NC(=O)Cn2c(-c3ccoc3)c(C3CCCCC3)c3ccc(C(=O)O)cc32)cc1 [Example 1071]
readout_kind: IC50
measured_value: 200 to 1000 nM
//
compound: O=C(O)CN1CCN(C(=O)Cn2c(-c3ccc(Br)cn3)c(C3CCCCC3)c3ccc(C(=O)O)cc32)CC1 [Example 1139]
readout_kind: IC50
measured_value: < 200 nM
//
compound: O=C(O)c1ccc2c(C3CCCCC3)c(-c3cc4ccccc4s3)n(CC(=O)N3CCC(N4CCCC4)CC3)c2c1 [Example 1049]
readout_kind: IC50
measured_value: 200 to 1000 nM

Field: IC50 (hepatitis C virus RNA dependant polymerase (NS5B) (Hepatitis C virus genotype 1b)). Entry: O=C(O)c1ccc2c(C3CCCCC3)c(-c3ccsc3)n(CC(=O)N3CCC(N4CCCC4)CC3)c2c1 [Example 1037]
< 200 nM

Field: IC50 (hepatitis C virus RNA dependant polymerase (NS5B) (Hepatitis C virus genotype 1b)). Entry: O=C(Cn1c(-c2ccoc2)c(C2CCCCC2)c2ccc(C(=O)O)cc21)NC1CCCCC1 [Example 1088]
200 to 1000 nM

Field: IC50 (hepatitis C virus RNA dependant polymerase (NS5B) (Hepatitis C virus genotype 1b)). Entry: O=C(Cn1c(-c2ccoc2)c(C2CCCCC2)c2ccc(C(=O)O)cc21)NCC1CCCO1 (stereo not drawn) [Example 1113]
200 to 1000 nM
